Assay comment: Single dose intravenous PK study in male Sprague Dawley rats (plasma by LC-MS/MS)
Assay type: in vivo
Measurement context: male, Sprague-Dawley, rat, plasma, iv, 2 mg/kg, PRX-P5-011 IV 2 mg/kg b.w., 6.00 h, mean

{"columns": ["Compound", "Unit info", "concentration at 6 h"],
 "data": [
  ["CCCCCCCCCCCCCCCCCC(=O)OC(C)OC(=O)N(CC)C1C2CCC(C2)C1c1ccccc1 (single isomer, unassigned)", "ng/mL", 0]
]}

###

Assay comment: Single dose oral PK study in male Sprague Dawley rats (plasma by LC-MS/MS)
Assay type: in vivo
Measurement context: male, Sprague Dawley, rat, in vivo; single oral dose 5 mg/kg body weight, individual animals (R0175, R0176, R0177), plasma; read-out: Tmax
Measurement kind: Tmax (min)

{"columns": ["Compound", "Unit info", "Value measured"],
 "data": [
  ["CCN[C@H]1[C@H]2CC[C@H](C2)[C@@H]1c1ccccc1 [PRX-002 (+) Isomer, reference compound]", "min", 30]
]}
